- System: Aorta
- TEST_SUMMARY: Vasodilating activity in Wistar rat aortic rings assessed as reduction in phenylephrine-induced contractions
- Format: functional, tissue-based
We'd kindly ask you to apply these IC50 classes: lo = under 6 µM, mid = from 6 µM up to 30 µM, hi = 30 µM and over

Asked: Exercise: read the entry CCOC(=O)C1=C(C)NC(=S)NC1c1ccc(O)c(OC)c1 (racemic) and state which class it falls under.
Given back: mid

Asked: Then this compound: CCOC(=O)C1=C(C)N=C(S)NC1c1cccc([N+](=O)[O-])c1 (racemic)
Given back: lo

Asked: Same question for CCOC(=O)C1=C(C)NC(=S)NC1c1ccc(OC)c(O)c1 (racemic) please.
Given back: mid

Asked: Field entry: COC(=O)C1=C(C)NC(C)=C(C(=O)OC)C1c1ccccc1[N+](=O)[O-]
Given back: lo

Asked: CCOC(=O)C1=C(C)NC(=S)NC1c1ccc2cn[nH]c2c1 (racemic) ?
Given back: hi

Asked: Try the compound CCOC(=O)C1=C(C)NC(=S)NC1c1ccc2c(c1)OCCO2 (racemic)
Given back: lo

Asked: Same thing, different compound: CCOC(=O)C1=C(C)NC(=S)NC1c1ccc(O)c([N+](=O)[O-])c1 (racemic)
Given back: mid

Asked: Same again, this time with CCOC(=O)C1=C(C)NC(=S)NC1c1cccc(O)c1 (racemic)
Given back: mid

Asked: Please do the same for CCOC(=O)C1=C(C)NC(=S)NC1c1cccnc1 (racemic) as well.
Given back: hi

Source listed as ChEMBL document CHEMBL4414544.
